STUDY TARGET: T1, Biotin Y46,48,51(SO3) PSGL-1(42-62) peptide (human, sulfotyrosine at Y46, Y48 and Y51; C-terminal Lys-biotin)
T1 construct: also called fully sulfated N-terminal PSGL-1 peptide
T1 peptide: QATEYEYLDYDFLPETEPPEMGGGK
ASSAY TEXT: ELISA, plate-bound target
Form field: pEC50 (one value per entry).
On this scale, pEC50 is minus log10 of a concentration expressed in M (mol/L).

INSERT INTO results (binder, observed_measurement) VALUES
  ('10F01 (antibody, IgG4, V domains shown) VH: EVQLVQSGGGLVQPGGSLRLSCAASGFTFSSYAMSWVRQAPGKGLEWVSALRGGDGGTYHADSVKGRFTISGDSSKNTLYLQMNSLRAEDTAVYYCARRMVGAAYAFDIWGQGTMVTVSS VL: LPVLTQPHSVSESPGKTVTISCTRSSGSIADNFVQWYRQRPGSAPTTVIYEGDQRPSGVPGRFSGSIDSSSNSASLTISGLQTDDEADYYCQSFDSYNRRTHVVFGGGTKLTVL', 9.89),
  ('03D07 (antibody, IgG4, V domains shown) VH: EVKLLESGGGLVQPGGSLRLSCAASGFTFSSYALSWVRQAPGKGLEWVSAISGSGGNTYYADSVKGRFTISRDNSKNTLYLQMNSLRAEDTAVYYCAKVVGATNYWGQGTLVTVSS VL: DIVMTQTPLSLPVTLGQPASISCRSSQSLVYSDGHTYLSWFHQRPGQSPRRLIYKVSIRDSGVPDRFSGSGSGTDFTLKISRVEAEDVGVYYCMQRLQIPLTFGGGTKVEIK', 9.89),
  ('PSG3 (antibody, V domains shown, Control anti-PSGL-1 mAb; only variable domains given) VH: QVQLVQSGAEVKKPGSSVRVSCKASGGSFSSYGIHWVQQAPGQGLEWMGRIIPVLRIRNYAQKFHDRVTIDADTSTGTAYMELSSLTSDDTAVYYCAGSRQGVAPTGYWGQGTMVTVSS VL: QAVLTQPSSLSASPGASASLTCNLRSGIDVGTYRIYWYQQKPGSPPQYLLRYKSDSDKQQGSGVPSRFSGTKDASANAGILLISGLQSEDEADYYCMIWHSNGWVFGGGTKLTVL', 9.36);

The binder identified as SELK1 (antibody, V domains shown, Control anti-PSGL-1 mAb; only variable domains given) VH: QVQLQQSGPGLVKPSQTLSLTCAISGDSVSSNIAAWHWIRLSPSRGLEWLGRTYYRRSKWNYDYALSVKSRININPDTSKNLFSLQLNSVTPEDTAVYYCTRGGGRAHSAWGQGTLVTVSS VL: EIVLTQSPGTLSVSPGERATLSCRASQSVSRSHLAWYQQKPGQAPRLLIFGASSRATGIPDRFSGSGSGTDFTLTISRLEPEDFAVYYCQQYGRPGVTFGQGTKVEIK registered its pEC50 at 10.15

The binder identified as 20I15 (antibody, V domains shown, From mouse immunisation; only variable domains given; also called 20115) VH: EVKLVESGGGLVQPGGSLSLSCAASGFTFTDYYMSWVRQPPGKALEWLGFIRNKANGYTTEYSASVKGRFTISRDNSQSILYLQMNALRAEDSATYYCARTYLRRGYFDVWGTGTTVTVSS VL: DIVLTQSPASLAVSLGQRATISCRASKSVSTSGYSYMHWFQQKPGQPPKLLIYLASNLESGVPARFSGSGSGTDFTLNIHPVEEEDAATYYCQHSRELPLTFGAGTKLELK registered its pEC50 at 9.21
